biological target: purified human plasma kallikrein (Homo sapiens (Human), UniProt P03952); test: Plasma kallikrein enzyme inhibition assay (chromogenic substrate S-2302); type: biochemical; settings: measured at 25° C. (no asterisk)
Sequence (P03952 391-638): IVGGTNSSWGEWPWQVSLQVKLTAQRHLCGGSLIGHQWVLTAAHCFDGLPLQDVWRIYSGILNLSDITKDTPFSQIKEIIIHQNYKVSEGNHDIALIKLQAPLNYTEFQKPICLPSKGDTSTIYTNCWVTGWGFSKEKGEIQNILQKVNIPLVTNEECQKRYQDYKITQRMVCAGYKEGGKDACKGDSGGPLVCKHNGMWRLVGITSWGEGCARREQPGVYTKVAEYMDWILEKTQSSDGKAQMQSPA
Sequence (P03952 20-390 partner): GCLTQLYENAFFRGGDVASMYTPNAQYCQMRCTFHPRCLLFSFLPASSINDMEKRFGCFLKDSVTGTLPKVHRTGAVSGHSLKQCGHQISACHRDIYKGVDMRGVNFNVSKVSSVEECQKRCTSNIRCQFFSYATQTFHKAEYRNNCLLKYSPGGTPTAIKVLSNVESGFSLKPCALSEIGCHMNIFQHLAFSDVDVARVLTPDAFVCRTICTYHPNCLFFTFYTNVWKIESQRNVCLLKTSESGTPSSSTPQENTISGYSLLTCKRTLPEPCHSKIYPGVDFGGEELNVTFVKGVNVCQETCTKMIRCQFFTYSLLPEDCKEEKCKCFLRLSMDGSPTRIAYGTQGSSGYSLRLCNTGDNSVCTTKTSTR
pKi: −log10 of the molar value. Counter-ions that a name gives are not always drawn.
Parameter: pKi. Scope: all listed entries.
outcomeMeasure: pKi

{"molecule": "CNC(=O)c1ccc(-c2cccc3c2CCN(C(=O)c2cn(-c4cccc(Cl)c4F)nn2)[C@H]3C(=O)Nc2ccc(C(=O)O)cc2)cn1 [Example 45, TFA salt]", "testResult": 6.44}
{"molecule": "CN(C)C1CCN(c2cccc3c2CCN(C(=O)c2cnn(-c4cccc(Cl)c4F)c2)C3C(=O)Nc2ccc(OC(F)F)cc2)CC1 (stereo not drawn) [Example 96, TFA salt]", "testResult": 7.47}
{"molecule": "Cn1cc2c(n1)CCN(C(=O)c1cn(-c3cccc(Cl)c3F)nn1)C2C(=O)Nc1ccc(C(=O)O)cc1 (stereo not drawn)", "testResult": 6.75}
